Target: T1, TNF-beta (human, UniProt P01374 35-205)
T1 construct: also called TNFβ; Tumour Necrosis Factor-beta
T1 sequence (looked up): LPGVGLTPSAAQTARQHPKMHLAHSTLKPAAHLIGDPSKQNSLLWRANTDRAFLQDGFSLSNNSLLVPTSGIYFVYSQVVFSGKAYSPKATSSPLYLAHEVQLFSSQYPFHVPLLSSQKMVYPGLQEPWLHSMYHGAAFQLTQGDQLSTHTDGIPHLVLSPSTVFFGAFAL
Experiment: phage ELISA

{"Binder": "I067B10 (scFv) scFv: QMQLVQSGAEVKKPGASVKVSCKASGYTFTSYYMHWVRQAPGQGLEWMGWINAGNSNTKYSQKFQGRVTITSDTSASTAYMELSGLRSEDTAVYYCARDRGAPNYDILTGYYAPAQGVAFDIWGKGTLATVSSGGGGSGGGGSGGGGSQSVLTQPPSVSAAPGQKVTISCSGSTSNIGNNYVSWYQQHPGKAPKLMIYDVSKRPSGVPDRFSGSKSGNSASLDISGLQSEDEADYYCAAWDDSLSEFLFGTGTKLTVLG", "binding result": "no binding"}
{"Binder": "I073F04 (scFv) scFv: QVQLQQSGAEVKKPGSSVKVSCKASGGTFRSYAFSWVRQAPGQGLEWMGYIVPVFGTATYAQNFQGRVTITADELTTTAFMELSSLTSEDTAVYYCARSLATRPLGMDVWGRGTTVTVSSGGGGSGGGGSGGGGSQSVLTQPASVSGSPGQSITISCTGTSSDVGGYNYVSWYQQHPGKAPKLMIYEGSKRPSGVSNRFSGSKSGNTASLTISGLQAEDEADYYCSSYTTRSTRVFGGGTKLTVLG", "binding result": "no binding"}
{"Binder": "I026C04-K (scFv) scFv: QVQLVQSGAEVKKPGSSVKVSCRASGGSFNKHAISWVRQAPGRGLEWMGGILPMYGTANYAQKFQGRVTITADKLTNTVYMDLSRLRYEDTAVYYCARELGLSIVGATTGALDMWGKGTLVTVSSGGGGSGGGGSGGGGSAQSVLTQPPSVSAAPGQKVTISCSGSSSNIGNNYVSWYQQIPGTAPKLLIYENNKRPSGIPDRFSGSKSGASATLDITGLQTGDEADYYCGTWHSSQVVFGGGTKLTVLG", "binding result": "no binding"}
{"Binder": "I064C07 (scFv) scFv: QVQLVQSGAEVKKPGSSVKVSCKASGGTFSSYAISWVRQAPGQGLEWMGGIIPIFGTANYAQKFQGRVTITADDLTRTAYMEMSSLKFEDTAVYYCASSEGTIFGVDWGRGTLVTVSSGGGGSGGGGSGGGGSDIQMTQSPSFLSASVGDRVTITCRASQGINNYLAWYQQKPGRAPKLLMYAASSLQSGVPSRFSGSGSGTDFTLTISSLQPEDFATYYCLQDSDYPLTFGGGTKLEIKR", "binding result": "no binding"}
{"Binder": "I018H09 (scFv) scFv: QVQLQQSGAEVKKPGASVKVSCKASGYTFTKYTMHWVRQAPGQGPEWMGWINGGSGDTKYSRKFQGRVTITKDTSASATYMELSSLGSEDTALYYCARATYDPLTGYSFDGFDIWGKGTMVTVSSGGGGSGGGGSGGGGSQSVLTQPASVSGSPGQSITISCTGTSSDVGGYNYVSWYQQHPGKAPKLMIYEGSKRPSGVSNRFSGSKSGNTASLTISGLQAEDEADYYCSSYTTRSTRVFGGGTKLTVLG", "binding result": "no binding"}
{"Binder": "I012A06 (scFv) scFv: QVQLQESGPGVVKPSQTLSLTCTVSGVSISSDSYYWSWIRQPAGKGPEWIGRIYPTGSTNYNPSLKSRVTISVDTSKNQFSLQLTSVTAADTAVYYCARGRWDYDLLTGEHLGYYFDYWGRGTLVTVSSGGGGSGGGGSGGGGSALSSELTQDPAVSVALGQTVRITCQGDTLRNYYASWYQQKPGQAPVLVIHSRNNRPSGIPDRFSGSSSGTTASLTITGSQAEDEADYYCNSRDSSGNVIFGGGTKLTVLG", "binding result": "no binding"}
{"Binder": "I018C02 (scFv) scFv: QVQLQQSGSELKKPGASVIVSCKVSGYSLTKMSMHWVRQSPGEGLEWVGGIDPETRQPVYAQKFQGRVTITKDTSASAAYMELSSLGSEDTALYYCARATYDPLTGYSFDGFDIWGQGTLVTVSSGGGGSGGGGSGGGGSQSVLTQPASVSGSPGQSITISCTGTSSDVGGYNYVSWYQQHPGKAPKLMIYEGSKRPSGVSNRFSGSKSGNTASLTISGLQAEDEADYYCSSYTTRSTRVFGGGTKLTVLG", "binding result": "no binding"}
{"Binder": "I025B06 (scFv) scFv: QVQLVQSGAEVKKPGSSVKVSCRASGGSFNHAISWVRQAPGRGLEWMGGILPMYGTANYAQKFQGRVTITADKLTNTVYMDLSRLRYEDTAVYYCARELGLSIVGATTGALDMWGKGTLVTVSSGGGGSGGGGSGGGGSAQSVLTQPPSVSAAPGQKVTISCSGSSSNIGNNYVSWYQQIPGTAPKLLIYENNKRPSGIPDRFSGSKSGASAALDITGLQTGDEADYYCGTWHSSQVVFGGGTKLTVLG", "binding result": "no binding"}
{"Binder": "I003F12S (scFv) scFv: QVQLLQSAAELKKPGQSLKISCKGSGFTFTTYWIGWVRQLPGKGLEWMGIIYPGDSHTTYSPSFEGHVNISVDKSINTAYLQWSSLKASDTAMYYCARHDDDVLTGYYFESWGQGTMVTVSSGGGGSGGGGSGGGGSQSVLTQPASVSGSPGQSITISCTGTSSDVGGYNYVSWYQQHPGKAPKLMIYEGSKRPSGVSNRFSGSKSGNTASLTISGLQAEDEADYYCSSYTTRSTRVFGGGTKLTVLG", "binding result": "no binding"}
